Molecular target: T1, recombinant human IL-23 (hrIL-23), produced at Centocor (human, UniProt P29460 23-328)
T1 sequence 1: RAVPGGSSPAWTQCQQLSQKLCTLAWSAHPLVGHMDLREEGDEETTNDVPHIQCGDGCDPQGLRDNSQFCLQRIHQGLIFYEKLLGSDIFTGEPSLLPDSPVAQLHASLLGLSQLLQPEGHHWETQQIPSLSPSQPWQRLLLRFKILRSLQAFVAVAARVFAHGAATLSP
T1 sequence 2: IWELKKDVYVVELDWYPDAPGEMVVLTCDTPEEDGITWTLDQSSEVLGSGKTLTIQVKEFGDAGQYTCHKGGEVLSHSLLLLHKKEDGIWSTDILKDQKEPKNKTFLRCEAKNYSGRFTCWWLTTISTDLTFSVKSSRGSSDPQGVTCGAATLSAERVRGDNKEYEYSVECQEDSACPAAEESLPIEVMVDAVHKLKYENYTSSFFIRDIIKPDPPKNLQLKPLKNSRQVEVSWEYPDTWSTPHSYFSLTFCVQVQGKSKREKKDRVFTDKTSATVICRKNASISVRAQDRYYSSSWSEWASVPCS
Test: cell-based or functional assay
Known Inhibition of IL-17 production, IC50 of a selection of binders
Write down the numeric answer in ng/mL and omit the unit.

# annotated cases, reported Inhibition of IL-17 production, IC50 shown
BINDER | U | Inhibition of IL-17 production, IC50
mAb MOR05042 (antibody, IgG1, V domains shown) VH: QVELVQSGAEVKKPGESLKISCKGSGYSFSNYWIGWVRQMPGKGLEWMGIIPSTYSPSFQGQVTISADKSISTAYLQWSSLKASDTAMYYCARWYYKPFDVWGQGTLVTVSS VL: DIVLTQPPSVSGAPGQRVTISCTGSSSNIGSGYDVHWYQQLPGTAPKLLIYGNSKRPSGVPDRFSGSKSGTSASLAITGLQSEDEADYYCSSWTPSSVVFGGGTKLTVL | ng/mL | 1.27
mAb MOR05041 (antibody, IgG1, V domains shown) VH: QVELVQSGAEVKKPGESLKISCKGSGYSFSNYWIGWVRQMPGKGLEWMGIIPSTYSPSFQGQVTISADKSISTAYLQWSSLKASDTAMYYCARWYYKPFDVWGQGTLVTVSS VL: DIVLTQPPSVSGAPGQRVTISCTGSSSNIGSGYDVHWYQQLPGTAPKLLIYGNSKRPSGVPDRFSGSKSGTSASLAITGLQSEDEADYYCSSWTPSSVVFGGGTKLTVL | ng/mL | 3.01

The record that follows has no Inhibition of IL-17 production, IC50 shown yet.
### Prompt Request the reported Inhibition of IL-17 production, IC50 associated with mAb MOR05051 (antibody, IgG1, V domains shown) VH: QVELVESGGGLVQPGGSLRLSCAASGFTFSSFGMSWVRQAPGKGLEWVSITYASVKGRFTISRDNSKNTLYLQMNSLRAEDTAVYYCARYWGTPYLMQFDNWGQGTLVTVSS VL: DIALTQPASVSGSPGQSITISCTGTSSDVGGYNSVSWYQQHPGKAPKLMIYSVSSRPSGVSNRFSGSKSGNTASLTISGLQAEDEADYYCSSYDTNKPLVVFGGGTKLTVL
### Response 66.3
